So I've got a bunch of compounds here, and I need their relative viability values.
System: NCI-H3122
Assay overview: relative viability (nuclei count vs DMSO), 5 days (fraction); higher = more cells survive
Assay conditions: first compound 0.03162 µM

For the compound Cc1cn(-c2cc(NC(=O)c3ccc(C)c(Nc4nccc(-c5cccnc5)n4)c3)cc(C(F)(F)F)c2)cn1 [Nilotinib] + CS(=O)(=O)CCNCc1ccc(-c2ccc3ncnc(Nc4ccc(OCc5cccc(F)c5)c(Cl)c4)c3c2)o1 [Lapatinib] (partner 2 µM) , what relative viability is on record?
1.01

Would you mind telling me what relative viability value was observed for Cc1cn(-c2cc(NC(=O)c3ccc(C)c(Nc4nccc(-c5cccnc5)n4)c3)cc(C(F)(F)F)c2)cn1 [Nilotinib] + Nc1ncn([C@H]2C[C@H](O)[C@@H](CO)O2)c(=O)n1 [Decitabine] (partner 2 µM) ?
0.471

Would you mind telling me what relative viability value was observed for Cc1cn(-c2cc(NC(=O)c3ccc(C)c(Nc4nccc(-c5cccnc5)n4)c3)cc(C(F)(F)F)c2)cn1 [Nilotinib] + O=C(CCCCCCC(=O)Nc1ccccc1)NO [Vorinostat] (partner 1 µM) ?
0.89

I am curious: what relative viability value has been reported for Cc1cn(-c2cc(NC(=O)c3ccc(C)c(Nc4nccc(-c5cccnc5)n4)c3)cc(C(F)(F)F)c2)cn1 [Nilotinib] + N=C(N)NC(=N)NCCc1ccccc1 [Phenformin] (partner 250 µM) ?
0.352

====

What relative viability was measured for each of the following?
Test system: NCI-H661
Assay overview: relative viability (nuclei count vs DMSO), 5 days (fraction); higher = more cells survive
Assay conditions: first compound 6.325 µM

Find relative viability (NCI-H661) for the entry Cc1csc(=NC2CCCCC2)n1/N=C/c1ccc(O)c(O)c1O [MIM1] + N=C(N)NC(=N)NCCc1ccccc1 [Phenformin] (partner 250 µM)
0.26

Provide the documented relative viability with NCI-H661 as the system for Cc1csc(=NC2CCCCC2)n1/N=C/c1ccc(O)c(O)c1O [MIM1] + O=C(c1cc(Cc2n[nH]c(=O)c3ccccc23)ccc1F)N1CCN(C(=O)C2CC2)CC1 [Olaparib] (partner 8 µM)
0.499

# query: relative viability | item Cc1csc(=NC2CCCCC2)n1/N=C/c1ccc(O)c(O)c1O [MIM1] + C[C@]1(O)C[C@@H](c2nc(-c3ccc4ccc(-c5ccccc5)nc4c3)c3c(N)nccn32)C1 [Linsitinib] (partner 1 µM) | system: NCI-H661
0.449

Identify the measured relative viability of Cc1csc(=NC2CCCCC2)n1/N=C/c1ccc(O)c(O)c1O [MIM1] + COc1cc2c(Oc3ccc(NC(=O)C4(C(=O)Nc5ccc(F)cc5)CC4)cc3F)ccnc2cc1OCCCN1CCOCC1 [Foretinib] (partner 0.25 µM) for NCI-H661.
0.75

What value of relative viability on NCI-H661 does Cc1csc(=NC2CCCCC2)n1/N=C/c1ccc(O)c(O)c1O [MIM1] + Cc1nc(NC(=O)N2CCC[C@H]2C(N)=O)sc1-c1ccnc(C(C)(C)C(F)(F)F)c1 [Alpelisib] (partner 2 µM) have?
0.472

API: value(readout= relative viability, system= NCI-H661, query= Cc1csc(=NC2CCCCC2)n1/N=C/c1ccc(O)c(O)c1O [MIM1] + CC(C)C[C@H](NC(=O)[C@H](Cc1ccccc1)NC(=O)c1cnccn1)B(O)O [Bortezomib] (partner 0.002 µM) )
0.453

Please state recorded relative viability (tested on NCI-H661) of Cc1csc(=NC2CCCCC2)n1/N=C/c1ccc(O)c(O)c1O [MIM1] + COc1cccc2cc(-c3nc([C@H]4CC[C@H](C(=O)O)CC4)n4ncnc(N)c34)[nH]c12 [OSI-027] (partner 0.5 µM)
0.534
